# Test details: Confirmation Concentration-Response Assay for lipid storage modulators; note: nearly all actives have a fitted effect of over 80% in size
# Condition info: Drosophila S3 cells, lipid droplet BODIPY/CellTracker ratio, 18-24 h; series mostly up to 46.1 µM
Records with an inconclusive call do not appear. Calls of active or inactive are those of the source. Calls come from the whole dose curve; as a rule, active = well fitted inhibition curve with a large enough effect; inconclusive = small, poorly fitted or top-dose-only effect, or effect the other way, or another doubt; inactive = no such curve, though single readings can be large or run the other way.
Possible outcomes: 1.0 for active, 0.0 for inactive

| Molecule | Cat |
| --- | --- |
| Cc1cc(C(=O)NC2CCCc3c2cnn3-c2ccccc2F)nc(C)n1 (stereo unspecified) | 1.0 |
| O=C(Nc1ccc(N2CCOCC2)cc1N1CCOCC1)c1ccc(Br)cc1 | 0.0 |
| Cc1ccc(NC(=O)CN(C)C(=O)Cn2ncc(Cl)c(Cl)c2=O)cc1 | 1.0 |
| CC(C)(C)c1ccc(/C=C2\SC(=O)N(CCNC(=O)c3cccc(S(=O)(=O)N4CCOCC4)c3)C2=O)cc1 | 1.0 |
| CCOC(=O)C1CCN(C(=O)C2(NC(=O)Nc3ccc(F)cc3F)CCCCC2)CC1 | 1.0 |
| COc1ccc(CCCc2nnc(SCC(=O)Nc3nc(C)cs3)n2C)cc1C | 1.0 |
| O=C(NC1CCCc2c1cnn2-c1cc(F)cc(F)c1)c1cc[n+]([O-])cc1 (stereo unspecified) | 0.0 |
| CCN1CCCC1CNC(=O)C(=O)NCCc1ccc(OC)c(OC)c1 (stereo unspecified) | 0.0 |
| CCOc1ccc(CCNC(=O)COC(=O)CSc2ccccc2C)cc1OCC | 0.0 |
| COc1ccc(Cl)cc1NC(=O)CN(C)C(=O)CCCc1c[nH]c2ccccc12 | 1.0 |
| COC(=O)c1c(-c2c(Cl)cccc2Cl)noc1NC(=O)NN1CCOCC1 | 1.0 |
| O=C(Nc1cccc(F)c1)NC1(C(=O)N2CCC(O)CC2)CCCCC1 | 0.0 |
| CNc1cccc2c1C(=O)c1ccccc1C2=O | 1.0 |
| CCOc1ccc(CCNC(=O)Cn2cccc2C(=O)c2ccccc2C)cc1OCC | 1.0 |
| O=C(NCc1cccnc1)Nc1cc(Cl)cc(Cl)c1 | 0.0 |
| CCN(CC)S(=O)(=O)c1cc(NC(=O)CNc2cccc(S(=O)(=O)N3CCOCC3)c2)ccc1C | 1.0 |
| CCC(C)(C)NC(=O)C(c1ccc(OC)cc1)N(CCOC)C(=O)CCC(=O)Nc1nccs1 (stereo unspecified) | 1.0 |
| O=C(CSc1nnc2c(n1)[nH]c1ccccc12)Nc1cccc(S(=O)(=O)N2CCOCC2)c1 | 1.0 |
| Cc1ccc(NC(=O)CNC(=O)CC23CC4CC(CC(C4)C2)C3)c(O)c1 | 1.0 |
| CCCCCCCCCC[n+]1cccc2c3ccccc3ccc21 | 1.0 |
| CCOc1ccc(CCNC(=O)CN2C(=O)NC3(CCCCC3C)C2=O)cc1OCC (stereo unspecified) | 0.0 |

From: PubChem BioAssay AID1569
